test system: CCRIS mutagenicity, Ames/micronucleus/aberration tests; test: CCRIS mutagenicity studies; settings: Test System: AMES SALMONELLA TYPHIMURIUM; Strain/Indicator: TA98; Metabolic Activation: NONE; Method: PREINCUBATION
Calls of active or inactive are those of the source. The rule behind the calls is not given here. Where a SMILES comes first, the peptide text is derived from it. [ ]: non-standard residue; d: D form. ξ: configuration not given here. Trp(1-OMe) = COn1cc(C[C@H](N)C(=O)O)c2ccccc21; Asu = N[C@@H](CCCCCC(=O)O)C(=O)O; Ile(3ξ) = CCC(C)[C@H](N)C(=O)O; dPip = O=C(O)[C@H]1CCCCN1
Pick one and only one: yes (1) = active, no (0) = inactive

input: Can you look up the reported call for Oc1c(I)cc(Cl)c2cccnc12 for me?
output: no (0)

input: Continue with CCOC(=O)c1ccccc1N
output: no (0)

input: One more compound: [Ga]#[As]
output: no (0)

input: Now consider COc1cc(C(C)=O)cc(OC)c1O .
output: no (0)

input: Same again, this time with O=Nn1cnc(CC(=O)NO)c1
output: yes (1)

input: Input COc1cc(N)ccc1C
output: no (0)

input: Param item: C/C(C=O)=C\c1ccccc1
output: no (0)

input: Cool, now CC(O)C(C)O (stereo unspecified)
output: no (0)

input: Cool, now O=C1c2ccccc2C(=O)c2c(O)c(O)cc(O)c21
output: no (0)

input: Try Cc1ccccc1Br next.
output: no (0)

input: Now the same for Nc1ccc(N=Nc2ccc3c(c2)C(=O)/C(=N/Nc2ccc(Nc4ccc(N/N=C5/C(=O)c6cc(N=Nc7ccc(N)cc7N)ccc6C=C5S(=O)(=O)O)cc4S(=O)(=O)O)cc2)C(S(=O)(=O)O)=C3)c(N)c1
output: yes (1)

input: Same thing, different compound: Nc1cc([N+](=O)[O-])cc(Cl)c1O
output: yes (1)

input: Input O=Cc1c(O)cc2c(c1O)C(=O)c1ccccc1C2=O
output: no (0)

input: For Oc1cccc2ncccc12 then?
output: no (0)

input: Try the compound O=C(O)c1ccc(/C=N/n2nnc3c([nH]c4ccccc43)c2=O)cc1
output: yes (1)

input: Now the same for O=[N+]([O-])c1ccc2c3c1ccc1cccc(c13)[C@@H]1O[C@H]21
output: yes (1)

input: Repeat for the following compound: Cc1ccc(Br)cc1
output: no (0)

input: Same read-out for Cc1cnc2ccccc2c1 ?
output: no (0)

input: Then CNc1c(C)cc2ncccc2c1N ?
output: no (0)

input: // query: Cc1cccc2c3c(c4cc5ccccc5cc4c12)O3
output: yes (1)

input: // query: Nc1cc(S(=O)(=O)O)cc2cc(S(=O)(=O)O)cc(O)c12
output: no (0)

input: What about COC(=O)C1=C(C)NC(C)=C(C(=O)OCCc2ccc(N3CCN(C(c4ccccc4)c4ccccc4)CC3)cc2)C1c1cccc([N+](=O)[O-])c1 (stereo unspecified) ?
output: no (0)

input: Subsequent entry: CC/C=C1\OC(=O)c2ccccc21
output: no (0)

input: Cool, now O=C(O)Cc1ccc(Cl)cc1
output: no (0)

input: Please answer likewise for Nc1nc(=O)n([C@H]2C[C@H](O)[C@@H](CO)O2)cc1CCCl
output: no (0)

input: Item: O=[N+]([O-])c1cccc2cccc([N+](=O)[O-])c12
output: yes (1)

input: Then this compound: CC(C)(C)OC(=O)C=Cc1ccc([N+](=O)[O-])o1
output: yes (1)

input: Would you kindly repeat that for CCC(C)[C@@H]1NC(=O)[C@H](Cc2cn(OC)c3ccccc23)NC(=O)[C@H](CCCCCC(=O)OC)NC(=O)[C@H]2CCCCN2C1=O (stereo partly specified) (cyclo([Asu](OMe)[Trp(1-OMe)][Ile(3ξ)][dPip])) ?
output: no (0)

input: Param item: Clc1cc(Cl)c(Cl)c(Cl)c1
output: no (0)

input: Lookup Nc1cccc2ncccc12
output: no (0)

input: Try the compound Clc1ccccc1Cl
output: no (0)

input: Also c1ccccc1 ?
output: no (0)

input: Entry to check: c1ccc2occc2c1
output: no (0)

input: Next compound up: Brc1ccccc1-c1ccccc1
output: no (0)

input: Try the compound c1ccc2cc(Nc3ccc(Nc4ccc5ccccc5c4)cc3)ccc2c1
output: no (0)

input: // next record C=CC(=O)OCCOCCOCCOCCOC(=O)C=C
output: no (0)
